- experimental-protocol: in vitro
- cond: mouse, microsomes, pH 7.4
Where a SMILES comes first, the peptide text is derived from it. [ ]: non-standard residue; d: D form. ξ: configuration not given here. ξTic = O=C(O)C1Cc2ccccc2CN1; ξOic = O=C(O)C1CC2CCCCC2N1
experimental-endpoint: remaining at 0.5 h, 1 μM (%)
Reply numerically in %, unit not repeated.

Reported remaining at 0.5 h, 1 μM of CC(=O)NCC(=O)N1Cc2ccccc2CC1C(=O)N1C(C(=O)N[C@@H](CCCCN)C(=O)N2Cc3ccccc3CC2C(=O)N2C(C(=O)NCC(=O)N3Cc4ccccc4CC3C(=O)N3C(C(=O)N[C@@H](CCCCN)C(=O)N4Cc5ccccc5CC4C(=O)N[C@@H](CCCCN)C(=O)N[C@@H](CCCCN)C(=O)N[C@@H](CCCCN)C(=O)N[C@@H](CCCCN)C(N)=O)CC4CCCCC43)CC3CCCCC32)CC2CCCCC21 (stereo partly shown) [FKAB-1Ge] (Ac-G[ξTic][ξOic]K[ξTic][ξOic]G[ξTic][ξOic]K[ξTic]KKKK-NH2) : 20
